Source of measurements: the supplement of paper PMC10567573

B1: ZNF24 (parent)
chain: THTKEQILELVVLEQFVAILPKEL

# Variants of: B1
# Assay protocol: protein stability index of a GFP-peptide fusion (GPS, HEK-293T) (PSI 1-6); higher = more stable;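 further: lentivirally expressed fusions sorted by FACS into six bins by GFP to DsRed ratio, PSI derived from sequencing read proportions per bin multiplied by bin number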
# Study conditions: c terminus: a fixed tail appended
I'd appreciate it if you could supply protein stability index values for the items below.
Give only the figure.

## Task Indicate its recorded protein stability index; the variant in question is THTKEQILELVVLEQFVAILTKEL [P21T]
## Result 2.57

## Task Indicate its recorded protein stability index; the variant in question is THTKEQYLELVVLEQFVAILPKEL [I7Y]
## Result 3.29

## Task Indicate its recorded protein stability index; the variant in question is THTKVQILELVVLEQFVAILPKEL [E5V]
## Result 3.53

## Task Indicate its recorded protein stability index; the variant in question is THTKEQDLELVVLEQFVAILPKEL [I7D]
## Result 2.35

## Task Indicate its recorded protein stability index; the variant in question is THTKEQILELVVNEQFVAILPKEL [L13N]
## Result 1.73

## Task Indicate its recorded protein stability index; the variant in question is THTKEQILELVVLEQIVAILPKEL [F16I]
## Result 1.43

## Task Indicate its recorded protein stability index; the variant in question is THTKEQILELVVLEQFVAILPKML [E23M]
## Result 3.72

## Task Indicate its recorded protein stability index; the variant in question is THPKEQILELVVLEQFVAILPKEL [T3P]
## Result 2.96

## Task Indicate its recorded protein stability index; the variant in question is THTKWQILELVVLEQFVAILPKEL [E5W]
## Result 2.85

## Task Indicate its recorded protein stability index; the variant in question is THTKEQILELVVLEQQVAILPKEL [F16Q]
## Result 2.01

## Task Indicate its recorded protein stability index; the variant in question is THTKEQILELVVLEQFVAIYPKEL [L20Y]
## Result 1.46

## Task Indicate its recorded protein stability index; the variant in question is THTKEQILELVVLEQFVDILPKEL [A18D]
## Result 2.32

## Task Indicate its recorded protein stability index; the variant in question is THTKEQILELVVLEQFVAILPSEL [K22S]
## Result 3.45

## Task Indicate its recorded protein stability index; the variant in question is THTKEQIYELVVLEQFVAILPKEL [L8Y]
## Result 2.66

## Task Indicate its recorded protein stability index; the variant in question is THTKEQILELVVLEQFVAIKPKEL [L20K]
## Result 1.63

## Task Indicate its recorded protein stability index; the variant in question is THTKEQILELVVLEQFVAIFPKEL [L20F]
## Result 2.83

## Task Indicate its recorded protein stability index; the variant in question is THTKEQILELVVLEQFVAILCKEL [P21C]
## Result 3.76

## Task Indicate its recorded protein stability index; the variant in question is THTKEQILELVVLEQFVAILPKVL [E23V]
## Result 2.76

## Task Indicate its recorded protein stability index; the variant in question is THTKEQILELVVLEQFVASLPKEL [I19S]
## Result 1.95

## Task Indicate its recorded protein stability index; the variant in question is THTKEQILELVVLEQFVALLPKEL [I19L]
## Result 2.38

## Task Indicate its recorded protein stability index; the variant in question is THTKEQILELVVLEQFVAILPKIL [E23I]
## Result 2.56

## Task Indicate its recorded protein stability index; the variant in question is THTKEQILELVVLEQFVAILAKEL [P21A]
## Result 3.78

## Task Indicate its recorded protein stability index; the variant in question is THTKEQILELVVLEQFVLILPKEL [A18L]
## Result 2.04

## Task Indicate its recorded protein stability index; the variant in question is THTKEQILPLVVLEQFVAILPKEL [E9P]
## Result 2.93

## Task Indicate its recorded protein stability index; the variant in question is THTKEQILELVVLEQFVAILPKYL [E23Y]
## Result 3.09

## Task Indicate its recorded protein stability index; the variant in question is THTKEQILELVVLEQFVAILPKEQ [L24Q]
## Result 1.81

## Task Indicate its recorded protein stability index; the variant in question is THTKEQILELVVLEQFVAILPKEI [L24I]
## Result 2.4

## Task Indicate its recorded protein stability index; the variant in question is THTKEQIQELVVLEQFVAILPKEL [L8Q]
## Result 1.95

## Task Indicate its recorded protein stability index; the variant in question is THTKETILELVVLEQFVAILPKEL [Q6T]
## Result 3.03

## Task Indicate its recorded protein stability index; the variant in question is THTKEQMLELVVLEQFVAILPKEL [I7M]
## Result 3.04

## Task Indicate its recorded protein stability index; the variant in question is THTKEQILELNVLEQFVAILPKEL [V11N]
## Result 2.15

## Task Indicate its recorded protein stability index; the variant in question is THTKEQILELDVLEQFVAILPKEL [V11D]
## Result 2.36

## Task Indicate its recorded protein stability index; the variant in question is TMTKEQILELVVLEQFVAILPKEL [H2M]
## Result 3.24

## Task Indicate its recorded protein stability index; the variant in question is THTKEKILELVVLEQFVAILPKEL [Q6K]
## Result 3.65

## Task Indicate its recorded protein stability index; the variant in question is THTKEQILELEVLEQFVAILPKEL [V11E]
## Result 1.86

## Task Indicate its recorded protein stability index; the variant in question is THTKEQILELVVLEQFVAILPKHL [E23H]
## Result 3.33

## Task Indicate its recorded protein stability index; the variant in question is THTKEQILELVMLEQFVAILPKEL [V12M]
## Result 2.51

## Task Indicate its recorded protein stability index; the variant in question is THTKEQILELVVLEQWVAILPKEL [F16W]
## Result 2.54

## Task Indicate its recorded protein stability index; the variant in question is THTKEIILELVVLEQFVAILPKEL [Q6I]
## Result 3.01

## Task Indicate its recorded protein stability index; the variant in question is THTKEQIRELVVLEQFVAILPKEL [L8R]
## Result 1.85

## Task Indicate its recorded protein stability index; the variant in question is THTKEQILELVVLEIFVAILPKEL [Q15I]
## Result 2.87

## Task Indicate its recorded protein stability index; the variant in question is THTKEQILELVKLEQFVAILPKEL [V12K]
## Result 2.07

## Task Indicate its recorded protein stability index; the variant in question is THTKEQTLELVVLEQFVAILPKEL [I7T]
## Result 2.11

## Task Indicate its recorded protein stability index; the variant in question is THTKEQILVLVVLEQFVAILPKEL [E9V]
## Result 3.25

## Task Indicate its recorded protein stability index; the variant in question is THTKEQILELWVLEQFVAILPKEL [V11W]
## Result 3.42

## Task Indicate its recorded protein stability index; the variant in question is THTKEQILELVVLGQFVAILPKEL [E14G]
## Result 3.21
